Reference for the values: paper PMC6376552

# System: HIV-1 (IIIB strain)
# Assay method text: MT-4 antiviral cytoprotection assay, five-day multi-cycle, wild type HIV-1
# Type: cell-based
# Condition parameters: CC50/EC50 ratio, wild type, MT-4
Endpoint name: SI (selectivity index)
Number only, please.

{"Compound": "COc1cc(Nc2c(F)cc(F)cc2F)nc(Nc2ccc(C#N)cc2)n1 [Compound 34]", "SI (selectivity index)": 454}

Please fill in: SI (selectivity index) reported for COc1cc(C(=O)c2c(F)cc(F)cc2F)nc(Nc2ccc(C#N)cc2)n1 [Compound 22] = 19.4

Reported SI (selectivity index) ( COc1cc(F)c(C(=O)c2cc(N)nc(Nc3ccc(C#N)cc3)n2)c(F)c1 [Compound 13] ) = 4900

Measured SI (selectivity index), N#Cc1ccc(Nc2nc(N)cc(Oc3c(F)cc(F)cc3F)n2)cc1 [Compound 36] : 293

# compound COc1cc(F)c(Nc2cc(N)nc(Nc3ccc(C#N)cc3)n2)c(F)c1 [Compound 37] ; its SI (selectivity index) = 5733

----------
# Assay method text: MT-4 cytotoxicity assay
# Type: cell-based
# Condition parameters: human, MT-4 cells (mock-infected), CC50, MT-4 cell line, n = 3
Define the label as met when CC50 at 5 days is strictly less than 20 µM and as not met in all remaining cases.

Worked cases, answers included:
{"Molecule": "Cc1cc(C(=O)c2c(F)cc(F)cc2F)nc(Nc2ccc(C#N)cc2)n1 [Compound 18]", "Qualitative label": "not met"}
{"Molecule": "N#Cc1ccc(Nc2cc(N)nc(C(=O)c3c(F)cc(F)cc3F)n2)cc1 [Compound 12]", "Qualitative label": "not met"}
{"Molecule": "COc1cc(F)c(Oc2cc(OC)nc(Nc3ccc(C#N)cc3)n2)c(F)c1 [Compound 31]", "Qualitative label": "met"}
{"Molecule": "COc1cc(C(=O)c2c(F)cc(F)cc2F)nc(Nc2ccc(C#N)cc2)n1 [Compound 22]", "Qualitative label": "met"}

Strictly below 20 µM: is that where CC50 at 5 days of N#Cc1ccc(Nc2nc(N)cc(Nc3c(F)cc(F)cc3F)n2)cc1 [Compound 38] sits?
not met

----------
Quick reference for pEC50 among some molecules
# Test system: HIV-1 (IIIB strain)
# Assay method text: MT-4 antiviral cytoprotection assay, five-day multi-cycle, wild type HIV-1
# Type: cell-based
# Condition parameters: Human immunodeficiency virus 1, IIIB, MT4, read-out: EC50 w.t.
The meaning of pEC50 here: minus log10 of the concentration in molar units.

Before answering, review these 3 worked examples.
{"Entry smiles": "COc1cc(F)c(Oc2cc(OC)nc(Nc3ccc(C#N)cc3)n2)c(F)c1", "Endpoint name": "pEC50", "Numeric readout": 7.72}
{"Entry smiles": "N#Cc1ccc(Nc2cc(C(=O)c3c(F)cc(F)cc3F)nc(N)n2)cc1", "Endpoint name": "pEC50", "Numeric readout": 4.40}
{"Entry smiles": "N#Cc1ccc(Nc2nc(N)cc(Oc3c(F)cc(F)cc3F)n2)cc1", "Endpoint name": "pEC50", "Numeric readout": 7.17}

Okay, next one:
The recorded pEC50 for `COc1cc(F)c(Nc2cc(OC)nc(Nc3ccc(C#N)cc3)n2)c(F)c1` is 8.15
